- Test system: HOP-18 NSCLC
- Assay summary: NCI tumour cell line growth inhibition, 48 h
Metric name: TGI

Enquiry: Tell me TGI reported for CCN(CC)CCNC(=O)c1cccc2nc3ccccc3nc12
Return: > 63.4 µM

Enquiry: For the compound CN(C)C(=O)Oc1c(-c2ccccc2)c(=O)n2c3ccccc3n3c(=O)n(C)c(=O)c1c23 , give its measured TGI value.
Return: > 100 µM

Enquiry: Using the record for CCN(CC)C(=S)[S][Bi]([S]C(=S)N(CC)CC)[S]C(=S)N(CC)CC , state its measured TGI.
Return: 0.375 µM

Enquiry: Give TGI for the following compound: O=C1CSc2cc([N+](=O)[O-])ccc2N1
Return: > 100 µM

Enquiry: State its TGI for this compound: O=S1Nc2c(Cl)cc(Cl)c(Cl)c2S1 (configuration not stated)
Return: > 100 µM

Enquiry: Answer with the recorded TGI for the compound listed here: C/C=N\N1C(=O)c2ccccc2C1=O
Return: > 100 µM

Enquiry: Identify TGI associated with the compound O=C1/C(=C/c2ccc(Br)cc2)CCC/C1=C\c1ccc(Br)cc1
Return: 78.6 µM

Enquiry: Consider the compound CCCCCCCCCCC(C)CCCCCCC(=O)O (configuration not stated) and give its recorded TGI.
Return: > 100 µM

Enquiry: Note TGI for the compound shown: CC(=O)[CH-]C(=O)c1ccccc1.CC(=O)[CH-]C(=O)c1ccccc1.CC[O-].O=C1c2ccccc2C(=O)c2c1ccc(O)c2[O-].[Ti+4]
Return: 88.3 µM

Enquiry: Output measured TGI for this item: CC1(C)CC(N(C(=O)/C=C/c2ccc([N+](=O)[O-])o2)C2CCCCC2)CC(C)(C)N1
Return: 37.4 µM

Enquiry: # return recorded TGI for entry COc1ccc(/C=C\c2cc(OC)c(OC)c(OC)c2)cc1O
Return: > 100 µM

Enquiry: Quick one: give measured TGI for CN(C)CC/C(=N\Nc1ccc(Cl)cc1Cl)c1ccccc1
Return: 28.7 µM

* * *

Consider the following compounds; for each one, report its TGI.
- Test system: XF 498 CNS
- Assay summary: NCI tumour cell line growth inhibition, 48 h
Give the value, in units of nM, as a plain number.

Enquiry: Identify TGI associated with the compound CCC[CH2][Sn]1([CH2]CCC)[O]CC(C)[O]1 (stereo not given)
Return: 2330

Enquiry: Quick one: give measured TGI for O=C(NC(=O)c1ccccc1[N+](=O)[O-])Nc1ccc(Oc2ncc(Cl)cn2)c(C(F)(F)F)c1
Return: 1620

* * *

- System: COLO 205 colon
- Assay summary: NCI tumour cell line growth inhibition, 48 h
For each entry below, report its GI50 value.

Enquiry: Name the recorded GI50 of the compound listed here: Cc1nc2ccccc2c(/C=C/c2ccc(Cl)cc2)c1C(=O)/C=C/c1ccccc1
Return: 1.98 µM

Enquiry: Return value of GI50 for input COc1cccc2c1n([O-])c1cccc(OC)c1[n+]2=O , no commentary.
Return: 12.1 µM

Enquiry: Respond only with GI50 recorded for CN(C)/N=N/c1nc[nH]c1C(N)=O
Return: 139 µM

Enquiry: Consider the compound O=c1oc2c(C(F)(F)F)cccc2cc1-c1csc(Nc2ccc(OCCF)cc2)n1 . State its measured GI50.
Return: 0.0268 µM

Enquiry: Note down GI50 recorded for CC(=O)[O-].O=C([CH-]C(=O)c1ccccc1)c1ccccc1.O=C([CH-]C(=O)c1ccccc1)c1ccccc1.[Sm+3]
Return: 7.89 µM

* * *

- Test system: HCT-116 colon
- Assay summary: NCI tumour cell line growth inhibition, 48 h
I'd appreciate it if you could supply TGI values for the items below.
Write the answer as a number in µM, unit excluded.

Enquiry: Quick one: give measured TGI for OCCN1CCN(CC/C=C2/c3ccccc3Sc3ccc(Cl)cc32)CC1
Return: 21.7

Enquiry: State its TGI for this compound: Cc1ccc(-c2cc(O)c(-c3ccc(C)cc3C)cc2O)c(C)c1
Return: 13.7

* * *

- System: NCI-H226 lung
- Assay summary: NCI tumour cell line growth inhibition, 48 h; in the data active = GI50 below about 0.43 µM; inactive = the rest
Pick one: 1 (yes) for active, 0 (no) for inactive

Enquiry: Could you kindly confirm the outcome this assay logged for CCN(CC)c1ccc(/C=C/C=C2\NC(=O)NC2=O)cc1 ?
Return: 0 (no)

Enquiry: Given COc1c(B(O)O)cc(F)cc1-c1nc2ccc3[nH]ncc3c2c2c1CCCC2 , state the outcome it received in this test.
Return: 0 (no)

Enquiry: What was the test verdict on COc1cc(NC(=O)C2=C(N3CCOCC3)/C(=C/c3ccc(Cl)cc3)CC2)cc(OC)c1OC ?
Return: 0 (no)

Enquiry: Would you mind telling me which call this test gave CS(=O)(=O)N(c1cc(-c2ccc3ncnc(Nc4cccc(Cl)c4)c3c2)cnc1Cl)S(C)(=O)=O ?
Return: 0 (no)

Enquiry: Please let me know the test result on file for C=CC(COC(c1ccccc1)(c1ccccc1)c1ccccc1)N(CC)CC (stereo unspecified) .
Return: 0 (no)

Enquiry: For N=C(N)c1ccc(-c2ccc(-c3ccc(Cl)c(Cl)c3)s2)nc1 , what call appears in the results of this test?
Return: 0 (no)

Enquiry: Called result for C[C@@H](Nc1nc(Nc2ccc(F)c(Cl)c2)nc2ccccc12)C1CC1
Return: 0 (no)

Enquiry: Tell me the assay call for O=C(/C=C\c1cccc2ccccc12)c1cccc2ccccc12 please.
Return: 0 (no)

Enquiry: Record lookup: outcome of this test for Nc1ncc(-c2cccc(S(N)(=O)=O)c2)c2scc(-c3ccc(F)c(Cl)c3)c12 ?
Return: 0 (no)

Enquiry: Short answer needed: outcome of this test for CNCCN=c1ccc2c3c1c(O)c1c(O)ccc(=O)c1c3[nH]n2CCNCCO ?
Return: 1 (yes)

Enquiry: For this molecule, state the assay outcome: Cc1ccc(-c2cc(O)c(-c3ccc(C)cc3C)cc2O)c(C)c1
Return: 0 (no)

Enquiry: Hello, I am checking results. What call was entered for CN(C)CCCn1c(-c2nonc2N)nc2cnccc21 ?
Return: 0 (no)

Enquiry: Dear all, I need the recorded test outcome for O=Nc1c(-c2c(O)[nH]c3ccc(Br)cc23)[nH]c2ccccc12 , thank you.
Return: 0 (no)

Enquiry: What call does the record list for Cc1cc(I)cc(CN(C)CCCN2CCN(C)CC2)c1O ?
Return: 0 (no)

Enquiry: Hi, do you know how CC[C@H](C)C(=O)O[C@H]1C[C@H](O)C=C2C=C[C@H](C)[C@H](CC[C@@H](O)C[C@@H](O)CC(=O)O)[C@H]21 came out in this test?
Return: 0 (no)

Enquiry: Recorded call for O=C1C(Cl)=C(Nc2cccc(O)c2)C(=O)N1Cc1ccc(Cl)cc1Cl ?
Return: 0 (no)

* * *

- Tested on: COLO 205 colon
- Assay summary: NCI tumour cell line growth inhibition, 48 h
Provide the reported GI50 of each item.

Enquiry: Please indicate recorded GI50 of Nc1c(C(=O)Nc2cccc(Cl)c2Cl)sc2nc3c(cc12)C(=O)CCC3 measured with COLO 205 colon.
Return: 1.61 µM

Enquiry: Return reported GI50 for target or system COLO 205 colon, item NC(=S)NN=C1CSSC1 .
Return: 2.4 µM

Enquiry: Recall the reported GI50 of O=C(c1ccccc1)c1c(C(F)(F)F)n([O-])c2ccc(C(F)(F)F)cc2[n+]1=O on COLO 205 colon and write it down.
Return: 0.384 µM

Enquiry: Consider the molecule CC(=O)c1nc2ccccc2n1CC(=O)c1cccc(Cl)c1 tested on COLO 205 colon; state its GI50.
Return: 16.1 µM

Enquiry: Give the observed GI50 of COc1ccc2ccc3oc([N+](=O)[O-])cc3c2c1 for COLO 205 colon.
Return: 0.157 µM

Enquiry: Please indicate recorded GI50 of COc1cc2c3c(n(C)c(=O)c2cc1OC)-c1cc2c(cc1/C3=C\CCNCCCN)OCO2 measured with COLO 205 colon.
Return: 0.487 µM

Enquiry: Specify the recorded GI50 for O=C(CCCCC(=O)N/N=C\c1ccccc1O)N/N=C\c1ccccc1O , system: COLO 205 colon.
Return: 3.67 µM

Enquiry: // fetch GI50 for CCC[CH2][Sn]1([CH2]CCC)[O]CC(C)[O]1 (centres undefined) ; system: COLO 205 colon
Return: 1.01 µM

Enquiry: State, for COLO 205 colon, measured GI50 of the molecule listed here: CCN(c1cc(C#CCN2CCOCC2)cc(C(=O)NCc2c(C)cc(C)[nH]c2=O)c1C)C1CCC(N(C)CCOC)CC1 (centres undefined)
Return: > 100 µM

Enquiry: Print COLO 205 colon GI50 for CCN(CC)C(=S)[S][Bi]([S]C(=S)N(CC)CC)[S]C(=S)N(CC)CC .
Return: < 0.0208 µM

Enquiry: # return GI50 for CC[C@H](C)C(=O)O[C@H]1C[C@H](O)C=C2C=C[C@H](C)[C@H](CC[C@@H](O)C[C@@H](O)CC(=O)O)[C@H]21 , test system: COLO 205 colon
Return: > 100 µM

Enquiry: Would you please give the reported GI50 of Cc1cccc(Cc2cnc(NC(=O)CCc3ccc(C)o3)s2)c1 with COLO 205 colon?
Return: 0.227 µM

Enquiry: Recall the reported GI50 of O=C1C(Cl)=C(Nc2cccc(C(F)(F)F)c2)C(=O)N1Cc1ccc(Cl)cc1 when tested on COLO 205 colon.
Return: 0.867 µM

Enquiry: Send back COLO 205 colon GI50 of Cc1cc(Nc2cc(N)ncn2)c(=O)n2c1C(=O)NC21CCCCC1 only.
Return: > 100 µM
